Hello, the source for this data is ChEMBL document CHEMBL3351232, in case you need it.

- Protocol summary: Antioxidant activity assessed as DPPH scavenging activity after 30 mins by spectrophotometry
- Assay type: physicochemical
- Condition: 0.5 h; read-out: ED50 (the source's name)
Endpoint: EC50 (µM)

CC(C)=CCCC1(C)C=Cc2c(O)c(C(=O)/C=C/c3cc(O)ccc3O)cc(O)c2O1 (stereo unspecified)
5.9
C=C(C)C(O)CCC1(C)C=Cc2c(O)c(C(=O)/C=C/c3c(O)cccc3O)cc(O)c2O1 (stereo unspecified)
8.9
CC(C)=CCCC1(C)C=Cc2c(O)c(C(=O)/C=C/c3c(O)cccc3O)cc(O)c2O1 (stereo unspecified)
7.8
O=c1c(O)c(-c2ccc(O)c(O)c2)oc2cc(O)cc(O)c12 [QUERCETIN]
2.5

I. C=C(C)C(O)CCC1(C)C=Cc2c(O)c(C(=O)/C=C/c3cc(O)ccc3O)cc(O)c2O1 (stereo unspecified)
II. CC(C)=CCCC1(C)C=Cc2c(O)c(C(=O)/C=C/c3ccccc3O)cc(O)c2O1 (stereo unspecified)
Query: I would appreciate it if you could say which entry, I or II , has the lower EC50 value. Pick one; state its label.
Result: II
(II: 4.4 µM, I: 8.3 µM)

====

- Tested on: MCF7
- Protocol summary: Cytotoxicity against human MCF7 cells after 48 hrs by PrestoBlue cell viability assay
- Type: functional, cell-based
- Condition: MCF7, 48 h
pIC50 values by entry
Please keep in mind that pIC50 is minus log10 of the molar concentration; only the number is needed.

Query: Quick check: pIC50 of C=C(C)C(O)CCC1(C)C=Cc2c(O)c(C(=O)/C=C/c3cc(O)ccc3O)cc(O)c2O1 (centres undefined) ?
Result: 3.66

Query: Quick check: pIC50 of CC(C)n1nc(C#Cc2ccncc2)c2c(N)ncnc21 ?
Result: 5.30

Query: Quick check: pIC50 of Cc1cc(O)c2c(c1)C(=O)c1cc(O)cc(O)c1C2=O ?
Result: 3.50

Query: Quick check: pIC50 of CC(C)=CCCC1(C)C=Cc2c(O)c(C(=O)/C=C/c3cc(O)ccc3O)cc(O)c2O1 (centres undefined) ?
Result: 5.12

Query: Quick check: pIC50 of CC(C)=CCCC1(C)C=Cc2c(O)c(C(=O)/C=C/c3ccccc3O)cc(O)c2O1 (centres undefined) ?
Result: 5.05

====

- Test system: MCF7
- Protocol summary: Cytotoxicity against human MCF7 cells after 48 hrs by PrestoBlue cell viability assay
- Type: functional, cell-based
- Condition: MCF7, 48 h
IC50 values by entry

// known answers, use as guide
CC(C)=CCCC1(C)C=Cc2c(O)c(C(=O)/C=C/c3c(O)cccc3O)cc(O)c2O1 (centres undefined)
> 237 µM
C=C(C)C(O)CCC1(C)C=Cc2c(O)c(C(=O)/C=C/c3ccccc3O)cc(O)c2O1 (mixture of isomers)
> 236 µM
CC(C)(O)/C=C/CC1(C)C=Cc2c(O)c(C(=O)/C=C/c3ccccc3O)cc(O)c2O1 (centres undefined)
> 236 µM

Query: Quick check: IC50 of CC(C)(O)/C=C/CC1(C)C=Cc2c(O)c(C(=O)/C=C/c3cc(O)ccc3O)cc(O)c2O1 (centres undefined) ?
Result: > 228 µM
